# System: SK-OV-3 ovarian
# Assay Notes: NCI-60 one-dose screen, 48 h
# Experimental Conditions: 10 µM unless noted
About 83,000 compounds went through this panel and 20% of them were active in at least one assay; those are over-represented in the sample as a whole. The source made the active and inactive calls. How the source made its calls: active means growth percent below 10; inactive means the rest.
Select the matching outcome among active, inactive

Req: Returns: the outcome recorded for COc1ccc(/C=C/c2nc(Nc3ccc(S(=O)(=O)Nc4cc(C)on4)cc3)c3ccccc3n2)cc1 in this assay.
Resp: inactive

Req: Outcome? CC1(C)CC(=O)C2=C(C1)N(c1ccc(F)cc1F)C(N)=C(C#N)C2c1cc(Br)ccc1F (configuration not stated)
Resp: inactive

Req: For this compound, state the assay outcome: CCOC(=O)c1cc(C(=O)c2ccc(OC)cc2)n2ccc(/C=C/c3cc[n+](CC(=O)c4ccc(OC)cc4)cc3)cc12
Resp: inactive

Req: // return assay outcome for COC(=O)C(OC(C)=O)C(OC(C)=O)c1ccc(OC)c(OC)c1 (configuration not stated)
Resp: inactive

Req: Please share the test call associated with N#C/C(=C\c1ccc(C(F)(F)F)cc1)c1cc2ccccc2[nH]1 .
Resp: inactive

Req: Assay result, entry O=C1Nc2cc(-c3cccc([N+](=O)[O-])c3)ccc2/C1=C/c1ccc[nH]1 — outcome?
Resp: inactive

Req: Name the outcome recorded for Cc1cnc(C(=O)Nc2nc3ccc(S(=O)(=O)Nc4ccc(C5(C(F)(F)F)CC5)cc4)cc3[nH]2)cn1 in the assay.
Resp: inactive

Req: What classification did C=C(C)[C@@H]1CC[C@]2(C(=O)N3CCN(C)CC3)CC[C@]3(C)[C@H](CC[C@@H]4[C@@]5(C)C/C(=C/c6cccnc6)C(=O)C(C)(C)[C@@H]5CC[C@]43C)[C@@H]12 end up with in this test?
Resp: inactive

Req: Can you look up the reported call for CCc1ccc(CNc2ccc(N3CCOCC3)c(C(=O)O)c2)cc1 for me?
Resp: inactive

Req: Tell me the assay call for CCOC(=O)c1cc(C(=O)c2ccc(OC)c(OC)c2)n2ccc(/C=C/c3cc[n+](CC(=O)c4ccc(OC)c(OC)c4)cc3)cc12 please.
Resp: inactive

Req: State the result this test recorded for COc1ccc(Cc2cnc(NC(=O)c3ccc4c(c3)OCCO4)s2)cc1 .
Resp: inactive

Req: Kindly provide the recorded test outcome for the following compound: O=S(=O)(NCCCNc1nccc(-c2c(-c3cccc(F)c3)nc3sccn23)n1)c1cccc2ccccc12
Resp: inactive

Req: For CC(=O)N1c2ccccc2NC2=C(C(=O)NC2(C)C)C1c1ccco1 (configuration not stated) , which call appears in the assay record?
Resp: inactive

Req: For CCCN1[C@@H]2CC[C@H]1/C(=C\c1ccc(OC)c(OC)c1)C(=O)/C2=C/c1ccc(OC)c(OC)c1 , what call appears in the results of this test?
Resp: inactive

Req: Test call, this compound: CCN(CC)c1ccc(/C=N/NC(=O)CSc2nc3ccccc3c(=O)n2Cc2ccc(S(N)(=O)=O)cc2)c(O)c1
Resp: inactive

Req: Hi team, can someone confirm the assay call for CNC(=O)c1cc(Cn2nc(C)c(NC(=O)Nc3ccc(Cl)c(C(F)(F)F)c3)c2C)ccn1 ?
Resp: inactive

Req: # lookup: test call for CCCCCCCC(=O)OCC/C=C/C1OC1C1OC(=O)/C=C\C=C\C(=O)N(C(C)=O)C(=O)/C=C(/C)CCC2OC2C1OC(=O)NC(C)=O (configuration not stated)
Resp: inactive

Req: For this compound, state the assay outcome: COc1cc(C(=O)Nc2cc3c(cc2Oc2cc(C)cc(C)c2)C(=O)N(C)[C@@H](CC(=O)N(C)O)C(=O)N3)c(Br)c(OC)c1OC
Resp: active

Req: Look up the recorded call for O=C(Nc1ccccc1)Nc1ccc2cc3ccc(NC(=O)Nc4ccccc4)cc3nc2c1 in this test.
Resp: inactive

Req: Just curious, what result did CC(=O)Nc1cccc(-c2ccc3c(c2)NC(=O)/C3=C\c2ccc[nH]2)c1 get here?
Resp: inactive

Req: Please state the recorded outcome for this compound: N#Cc1c(-c2ccccc2)nc2c(c(-c3ccccc3)nn2-c2ccccc2)c1-c1ccc(O)cc1
Resp: inactive

Req: What was the test verdict on NS(=O)(=O)c1ccc(CCN2C(=O)C=CC2=O)cc1 ?
Resp: inactive

Req: Returns: the outcome recorded for COc1ccc(NC(=O)c2cc(NCc3cc(O)ccc3O)ccc2O)cc1 in this assay.
Resp: inactive

Req: Look up the recorded call for CC(Sc1nc2ccccc2c(=O)n1CCc1ccc(S(N)(=O)=O)cc1)C(=O)Nc1ccc(Cl)cc1 (configuration not stated) in this test.
Resp: inactive

Req: What is the recorded call for this compound in the test? Nc1c(C(=O)Nc2cccc3cnccc23)sc2nc3c(cc12)CN(Cc1ccccc1)CC3
Resp: inactive

Req: Query: recorded result category for O=C(Nc1ccc(-c2ccc3c(c2)NC(=O)/C3=C\c2ccc[nH]2)cc1)NC1CC1 in this test
Resp: inactive

Req: Status in this test for N=C(N)c1ccc(OCCCCCCCCCCOc2ccc(C(=N)N)cc2)cc1 ?
Resp: active

Req: Status in this test for CN(C)CCn1c2ccc(Br)cc2c2nc3ccccc3nc21 ?
Resp: inactive

Req: Returns: the outcome recorded for ClC1=C(Br)C(Br)(Br)C(=C(Br)Br)C1(Br)Br in this assay.
Resp: inactive

Req: Look up the recorded call for CC(c1ccccc1)C(C(=O)c1ccccc1)c1ccccc1 (configuration not stated) in this test.
Resp: inactive

Req: Hi, sorry to bother you, what did the test record for Cn1cc(CC2CC(=O)N(c3ccccc3)C2=O)sc1=NC(=O)c1ccccc1 (configuration not stated) ?
Resp: inactive

Req: Assay result, entry Fc1ccc2c(-c3cncn3CCc3ccccc3)c[nH]c2c1 — outcome?
Resp: inactive

Req: Tell me the assay call for Cc1nc(N)nc(N[C@@H](C)c2nc3cccc(NCc4ccc(C(=O)NO)cc4)c3c(=O)n2-c2ccccc2)n1 please.
Resp: inactive

Req: Check the results log: what was the call for Cc1ccc(C(=O)/C(=C/c2ccc([N+](=O)[O-])cc2)SCc2ccc(Cl)cc2)cc1 ?
Resp: inactive

Req: GET /call?item= CCCCCN1C=C/C(=C\C(=O)N(C)c2ccc(Oc3ccccc3)cc2)c2ccccc21 returns the recorded outcome of this test.
Resp: inactive

Req: How did this test come out for COc1cc(CC(=O)n2ncc3ccc(N)cc32)cc(OC)c1OC ?
Resp: inactive

Req: What classification did Cn1cc(-c2nc(-c3c[nH]c4c(Cl)nccc34)cs2)c2cc(Br)ccc21 end up with in this test?
Resp: inactive

* * *

# Tested on: CCRF-CEM leukemia
# Assay Notes: NCI-60 one-dose screen, 48 h
# Experimental Conditions: 10 µM unless noted
# Experimental: Growth inhibition of the CCRF-CEM human tumor cell line is measured as a screen for anti-cancer activity. Cells are grown in 96 well plates and exposed to the test compound for 48 hours. Compounds are tested at a single concentration, which is 10^-5 M for most compounds. The reported endpoint is percent growth (GI% or GIPRCNT), where numbers from 0 - 100% represent growth inhibition, and numbers from -100% - 0 represent cell death. For example, a value of 40 represents 60% growth inhibition. […]
The panel holds about 83,000 compounds, 20% with a hit somewhere; the sample as a whole holds those more often. Calls of active or inactive are those of the source. The calls were made as follows: active = growth percent below 10; inactive = the rest.
Entry note: the call must match one of active, inactive

Req: Identify the outcome logged in this assay for the compound shown: CCN(CC)c1ccc(/C=N/NC(=O)CSc2nc3ccccc3c(=O)n2CCc2ccc(S(N)(=O)=O)cc2)c(O)c1
Resp: active

Req: Field: outcome | Entry: COc1ccc(C(=O)c2cc(C)c(OC)c(C)c2)c(OC)c1OC(=O)C(Cl)Cl
Resp: inactive

Req: What outcome does the record of this test show for COc1ccc(C(=O)c2cc(C)c(OC)c(C)c2)c(OC)c1NC(C)=O ?
Resp: inactive

Req: Could you kindly confirm the outcome this assay logged for COc1ccc2[nH]c(=O)c(CN3CCN(c4nccc(-c5ccc(Cl)cc5)n4)CC3)cc2c1 ?
Resp: inactive

Req: Could you please tell me the result logged for Nc1ccccc1NC(=O)c1ccc(-n2nc(-c3ccccc3)c3ccccc32)cc1 in this assay?
Resp: active

Req: Check the results log: what was the call for O=S(=O)(NCCCNc1nccc(-c2c(-c3cccc(O)c3)nc3occn23)n1)c1ccc(Cl)cc1 ?
Resp: inactive

Req: Recorded call for O=Cc1cc2ccccc2nc1Oc1ccc(C(F)(F)F)cc1 ?
Resp: active

Req: Per the assay record, what outcome was assigned to CCCOC(=O)N[C@H]1CCc2c(Cl)c(OC)c(OC)c(OC)c2-c2ccc(SC)c(=O)cc21 ?
Resp: active

Req: Per the assay record, what outcome was assigned to CCOC(=O)C1=C(CCl)NC(=O)NC1c1ccc2c(c1)OCO2 (centres undefined) ?
Resp: inactive

Req: Please share the test call associated with C=C1C(=O)O[C@H]2[C@H]1CC/C(COC(=O)NCC(C)c1ccc(CC(C)C)cc1)=C\CC[C@@]1(C)O[C@@H]21 (some centres undefined) .
Resp: active

Req: Test call for this compound, please: CC(Sc1nc2sc3c(c2c(=O)n1-c1ccc(Cl)cc1)CCCC3)C(=O)Nc1nc(-c2ccc(Br)cc2)cs1 (centres undefined)
Resp: inactive

Req: Name the outcome recorded for O=C(c1nc2ccccc2[nH]1)C1C(c2ccc(Br)cc2)C2CC3CCCC[C@H]3N2[C@@]12C(=O)Nc1cc(Cl)ccc12 (some centres undefined) in the assay.
Resp: inactive

Req: How did this test come out for O=S(=O)(NCCNc1nccc(-c2c(-c3cccc(O)c3)nc3occn23)n1)c1ccc(Cl)cc1 ?
Resp: inactive

Req: Hi, sorry to bother you, what did the test record for CC/C(=C\c1ccc(OC)cc1)C(=O)c1ccc(OC)cc1 ?
Resp: inactive

Req: Hello, I am checking results. What call was entered for CCCCCCCCCCCCCCCC[N+]1(C)CCN(SN2CC[N+](C)(CCCCCCCCCCCCCCCC)CC2)CC1 ?
Resp: inactive

Req: Any idea what this test logged for CCCCOc1ccc(/C=N/Nc2cc(C)nc3ccc(Br)cc23)cc1 ?
Resp: active

Req: Outcome? O=C(CCN1CCCC1)c1ccc([N+](=O)[O-])cc1
Resp: inactive

Req: Assay result, entry O=C(NO)c1ccc(-n2nc(-c3ccccc3)c3ccccc32)cc1 — outcome?
Resp: inactive

Req: What did this assay record as the result for Cc1cc2cc3ccc(N(C)C)cc3nc2cc1N ?
Resp: active

Req: Hi, do you know how COc1cc(NCCCCCNC(C)(C)C)c2ncccc2c1 came out in this test?
Resp: inactive

Req: What call does the record list for Cc1c2cc[nH]c(=O)c2c(C)c2c1[nH]c1cc(OCCN3CCN(C)CC3)ccc12 ?
Resp: inactive

Req: Field: outcome | Entry: NS(=O)(=O)c1ccc(CCn2c(SCC(=O)c3ccc(Cl)cc3)nc3ccccc3c2=O)cc1
Resp: inactive

Req: Status in this test for COc1cccc(-c2nc3occn3c2-c2ccnc(NCCNS(=O)(=O)c3ccc(C(F)(F)F)cc3)n2)c1 ?
Resp: inactive

Req: Dear colleague, could you share the recorded outcome for NNC(=O)c1ccc(-n2nc(-c3ccccc3)c3ccccc32)cc1 when you have a moment?
Resp: inactive

Req: Name the outcome recorded for N#C/C(=C\c1ccccn1)c1nc2cc(Cl)ccc2s1 in the assay.
Resp: inactive

Req: Can you look up the reported call for COc1cc(/C(C)=C(\c2ccc(Cl)cc2)c2ccc(OCCN(C)C)cc2)ccc1F for me?
Resp: inactive

Req: Can you look up the reported call for O=C(Nc1ccc(NC(=O)c2cc(=O)[nH]c3ccccc23)cc1)Nc1cccc(Cl)c1 for me?
Resp: inactive

Req: Status in this test for N#C/C(=C\c1c(-c2ccccc2)[nH]c2ccccc12)C(=O)c1ccc(Cl)cc1 ?
Resp: active

Req: For O=C1c2ccc3c4c(ccc(c24)C(=O)N1CCCNCc1ccccc1Cl)C(=O)N(CCCNCc1ccccc1Cl)C3=O , which call appears in the assay record?
Resp: active

Req: Kindly provide the recorded test outcome for the following compound: O=C1CC(=O)OC(c2ccc([N+](=O)[O-])cc2)O1
Resp: inactive

Req: Which result was noted for this compound in the test: CN1C(=O)NC(c2ccc3c(c2)OCO3)C=C1c1ccccc1 (centres undefined)
Resp: inactive

Req: Called result for C#Cc1cccc(NC(=O)Nc2cccc(NC(=O)CCl)c2)c1
Resp: inactive

Req: Which outcome did this test record for the compound Cc1cc2c(C(=O)NCC#N)cccc2n1-c1nc2c(c(NCc3ccccc3)n1)CCCC2 ?
Resp: active

Req: Hi team, can someone confirm the assay call for O=C(c1nnc(Nc2ccccc2Br)o1)c1c[nH]c2ccccc12 ?
Resp: inactive

Req: Recorded call for CC(=O)c1ccc(NS(=O)(=O)c2cccc(C(=O)Nc3ccc(Br)cc3)c2)cc1 ?
Resp: inactive

Req: For this compound, state the assay outcome: COc1ccc(/C=C/c2nc(Nc3ccc(S(=O)(=O)Nc4cc(C)on4)cc3)c3ccccc3n2)cc1
Resp: inactive

Req: Per the records of this test, what outcome belongs to O=C1c2ccccc2CCC12OC2c1cn(-c2ccccc2)nc1-c1ccc(Cl)cc1 (centres undefined) ?
Resp: inactive

Req: Could you please tell me the result logged for COc1cc(CC(=O)n2ncc3ccc(N)cc32)cc(OC)c1OC in this assay?
Resp: inactive

Req: Hey, what did the test say about CCNC(=O)Oc1ccc(/C(=C(\C)c2ccccc2)c2ccc(OCCN3CCCCC3)cc2)cc1 ?
Resp: inactive
